Target: Protein deacetylase HDAC6 (Homo sapiens)
Sequence (Q9UBN7 whole entry): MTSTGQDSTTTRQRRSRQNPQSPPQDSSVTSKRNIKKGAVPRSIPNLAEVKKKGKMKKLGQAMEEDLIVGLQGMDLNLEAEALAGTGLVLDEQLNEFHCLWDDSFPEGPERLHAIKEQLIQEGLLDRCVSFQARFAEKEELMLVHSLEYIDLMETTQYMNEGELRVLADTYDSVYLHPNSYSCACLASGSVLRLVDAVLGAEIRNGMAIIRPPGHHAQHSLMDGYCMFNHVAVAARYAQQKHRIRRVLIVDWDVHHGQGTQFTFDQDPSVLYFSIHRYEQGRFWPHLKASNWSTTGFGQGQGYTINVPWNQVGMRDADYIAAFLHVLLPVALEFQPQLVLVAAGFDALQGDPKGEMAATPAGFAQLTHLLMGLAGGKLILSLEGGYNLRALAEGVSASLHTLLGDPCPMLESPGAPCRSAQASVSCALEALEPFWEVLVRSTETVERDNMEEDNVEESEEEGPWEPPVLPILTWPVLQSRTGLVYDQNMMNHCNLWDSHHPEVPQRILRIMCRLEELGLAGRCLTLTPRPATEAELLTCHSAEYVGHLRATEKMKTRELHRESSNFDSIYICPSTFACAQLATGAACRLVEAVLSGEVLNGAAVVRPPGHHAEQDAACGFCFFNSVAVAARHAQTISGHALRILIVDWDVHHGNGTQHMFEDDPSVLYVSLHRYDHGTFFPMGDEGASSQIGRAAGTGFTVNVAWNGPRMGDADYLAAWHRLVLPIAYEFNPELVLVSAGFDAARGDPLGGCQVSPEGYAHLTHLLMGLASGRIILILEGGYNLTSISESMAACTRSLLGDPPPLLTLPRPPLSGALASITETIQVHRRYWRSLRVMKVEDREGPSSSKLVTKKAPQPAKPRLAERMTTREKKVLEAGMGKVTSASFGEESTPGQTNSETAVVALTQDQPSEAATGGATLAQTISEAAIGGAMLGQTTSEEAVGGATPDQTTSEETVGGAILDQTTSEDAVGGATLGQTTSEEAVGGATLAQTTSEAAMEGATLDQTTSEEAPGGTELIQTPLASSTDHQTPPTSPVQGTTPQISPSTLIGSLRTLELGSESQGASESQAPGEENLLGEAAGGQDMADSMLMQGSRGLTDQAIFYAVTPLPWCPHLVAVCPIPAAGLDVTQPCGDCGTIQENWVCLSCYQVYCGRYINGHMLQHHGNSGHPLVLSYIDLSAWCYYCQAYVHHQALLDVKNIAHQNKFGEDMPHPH
Experiment: Inhibition of human recombinant HDAC6 expressed in High5 insect cells using Boc-Lys (-acetyl)-AM) as substrate after 24 hrs by fluorescence assay
pIC50: −log10 of the molar value.
Known pIC50 of a selection of compounds
readout_type: pIC50

[
  {
    "input_smiles": "COc1cc2c(c(OC)c1OC)-c1ccc(OC)c(=O)cc1[C@@H](NC(=O)CCCCCC(=O)NO)CC2",
    "observed_measurement": 6.12
  },
  {
    "input_smiles": "COc1cc2c(c(OC)c1OC)-c1ccc(OC)c(=O)cc1[C@@H](NC(=O)CCCC(=O)NO)CC2",
    "observed_measurement": 5.08
  },
  {
    "input_smiles": "COc1cc2c(c(OC)c1OC)-c1ccc(OC)c(=O)cc1[C@@H](NC(=O)CCC(=O)NO)CC2",
    "observed_measurement": 5.46
  },
  {
    "input_smiles": "COc1cc2c(c(OC)c1OC)-c1ccc(OC)c(=O)cc1[C@@H](NC(=O)CCCCC(=O)NO)CC2",
    "observed_measurement": 6.36
  },
  {
    "input_smiles": "COc1cc2c(c(OC)c1OC)-c1ccc(OC)c(=O)cc1[C@@H](NC(=O)CCCCCCC(=O)NO)CC2",
    "observed_measurement": 5.01
  }
]
